Experiment: Human HepG2 cell viability assay in 384 well format
Assay type: toxicity, cell-based
Parameters: dose 125 nL, time 70.5 hour; concentration not given beside the values
Details: HepG2 cells, read-out: Inhibition
// values below are reported cytotoxicity at 70.5 h
Write your answer as a measured quantity: the number, then the unit.

COCCNS(=O)(=O)c1cccc(CSC)c1 | 18.6%

Enquiry: Field request: cytotoxicity at 70.5 h | item: `O=C(C1CCC1)N1CCN(Cc2ccc(F)cc2)[C@H]2CS(=O)(=O)C[C@H]21`
Return: -3.17%

Enquiry: Item `CN(C)C(=O)CN1C[C@@H]2CC[C@H](C1)N(Cc1ccc(Cl)cc1Cl)C2` has what recorded cytotoxicity at 70.5 h?
Return: 2.51%

Enquiry: Which cytotoxicity at 70.5 h reading was recorded for the compound Cc1ccnc(C2CCN(c3ccnc(C)n3)C2)n1 (centres undefined) ?
Return: -12.3%

Enquiry: Quick one: cytotoxicity at 70.5 h for `N#CCCN(Cc1ccco1)C(=O)CCCc1ccccc1` ?
Return: -4.22%

###

// reported cytotoxicity at 70.5 h for each item listed
Assay: Human HepG2 cell viability assay in 384 well format
Assay type: toxicity, cell-based
Parameters: dose 125 nL, time 70.5 hour; concentration not given beside the values
Settings: HepG2 cells, read-out: Inhibition
Hi! Could you send only the number? It should be in %, unit omitted.

O=S(=O)(N1CCCCCC1)N1CCCN(CC2CCCO2)CC1 (stereo not drawn) | -1.63
COc1cccc(N2CCN(Cc3nccn3C(C)C)CC2=O)c1 | -2.87
O=C(NCC1CCN(CCc2ccccc2)C1)c1cc(Cl)c[nH]1 (stereo not drawn) | 2.19
O=C(N1CCC(Oc2ccncc2)C1)C1(c2ccc(F)cc2)CC1 (stereo not drawn) | 5.93
O=C(c1nc(=O)[nH][nH]1)N1CCCC(c2cc(C(F)(F)F)[nH]n2)C1 (stereo not drawn) | 34.5

Enquiry: Given the compound `CCc1nc(CCNC(=O)Nc2ccc(C(=O)NC)cc2)cs1` , what is its reported cytotoxicity at 70.5 h?
Return: -1.4

Enquiry: For the compound CC(O)CN1CCc2[nH]nc(C(c3ccccc3)c3ccccc3)c2C1 (stereo not drawn) , what cytotoxicity at 70.5 h is on record?
Return: -5.7

Enquiry: # cytotoxicity at 70.5 h lookup, item COC1CCN(S(=O)(=O)N2CC(c3ccccc3)C(C)(C)C2)CC1 (stereo not drawn)
Return: 27.1

Enquiry: Entry `O=C(c1c(F)cccc1F)N1CCOCC1` : reported cytotoxicity at 70.5 h = ?
Return: 18.9

Enquiry: Bench note: what cytotoxicity at 70.5 h did `Cc1nn(C)c(C)c1CN(Cc1cccn1-c1cccnc1)C(C)C` show?
Return: 11.8

Enquiry: I am curious: what cytotoxicity at 70.5 h value has been reported for CC(C)C(Sc1nncn1C1CC1)C(=O)NCc1cccnc1 (stereo not drawn) ?
Return: -2.46

Enquiry: Recorded cytotoxicity at 70.5 h of `CC(C)c1nnsc1CNC(=O)C1CCN(C(=O)C2CCCC2)CC1` , please.
Return: 12

Enquiry: Sample `CNS(=O)(=O)CC(=O)N(Cc1ccsc1)c1ccccc1` — what was its cytotoxicity at 70.5 h?
Return: -8.25

###

Assay: Human HepG2 cell viability assay in 384 well format
Type: toxicity, cell-based
Set-up: dose 125 nL, time 70.5 hour; concentration not given beside the values
Settings: HepG2 cells, read-out: Inhibition
assay-endpoint: cytotoxicity at 70.5 h (%)
Report the value in % with no unit label.

Before answering, review these 8 worked examples.
COc1ccc(S(=O)(=O)N2CCn3nc(C)nc3C2)cc1C | -5.13
COc1ccc(N2CCCN(C(=O)Cc3csc(C)n3)CC2)cc1 | 0.0529
COc1ccnc(N2CCN(C(=O)c3cc(C4CC4)[nH]n3)CC2)n1 | -5.93
Cc1nc(-c2ccccc2)sc1C(=O)N(C1CC1)C1CC(=O)NC1=O (stereo unspecified) | -8.02
CC(C)N1c2sc(-c3ccsc3)nc2CC1C(=O)NC1CCCC1 (stereo unspecified) | -7.06
O=C(CCC1CCN(C(=O)c2cc[nH]c2)CC1)NCc1cccc(Cl)c1 | -9.67
OCCn1nccc1C1CCN(Cc2nc(C3CC3)no2)CC1 | -1.33
CC(=O)N1CCC(c2nccnc2CNC(=O)c2cc[nH]n2)CC1 | -4.85

Enquiry: Return reported cytotoxicity at 70.5 h; argument: `CN(CCO)C[C@@H]1CN(C(=O)c2c(F)cccc2Cl)C[C@@H]1CO`
Return: -8.11

Enquiry: Can you share its cytotoxicity at 70.5 h? I mean this compound: `COc1ccc(S(=O)(=O)C2CCN(C(=O)c3cc(C)cs3)CC2)cc1`
Return: 1.95

Enquiry: Given `CSCC[C@@H](CO)n1ccnc1-c1nccn1C` , state its recorded cytotoxicity at 70.5 h.
Return: -5.66
